Source of measurements: PubChem BioAssay (NCATS)

# Test system: Zika virus NS2B-NS3 protease (unlinked complex)
# assay notes: Primary screen GU Rhodamine qHTS for Zika virus inhibitors: Unlinked NS2B-NS3 protease assay (AID 1347159); also: nearly all actives have a fitted effect of over 60% in size
# reported conditions: Recombinant ZIKV NS2B-NS3 protease, Rhodamine110 substrate fluorescence; series mostly up to 107 µM
Inconclusive results are not listed. The source made the active and inactive calls. Calls follow the shape of the dose curve; as a rule, active = well fitted inhibition curve with a large enough effect; inconclusive = small, poorly fitted or top-dose-only effect; inactive = no such curve, though single readings can be large or run the other way.
Would you mind answering with one of these outcomes? YES (active), NO (inactive)

Solved entries:
compound	classification
C[C@H]1CC[C@@]2(OC1)O[C@H]1CC3[C@@H]4CC[C@@H]5C[C@@H](O[C@@H]6O[C@H](CO)[C@@H](O[C@@H]7O[C@@H](C)[C@H](O)[C@@H](O)[C@H]7O)[C@H](O)[C@H]6O[C@@H]6O[C@H](CO)[C@@H](O)[C@H](O)[C@H]6O)CC[C@]5(C)C4CC[C@]3(C)[C@H]1[C@@H]2C (stereo partly specified)	NO
Cc1cc(OCCCS(C)(=O)=O)cc(C)c1-c1cccc(COc2ccc3c(c2)OCC3CC(=O)O)c1 (stereo unspecified)	YES
C=C1CCC[C@]2(C)CC/C(=C(/CO)C(=O)OC)C[C@@H]12	YES
CC(=O)OC1C(O)CC2(C)C(CCC3(C)C2CC=C2C4C5(CCC(CO[C@@H]6O[C@H](CO)[C@@H](O)[C@H](O)[C@H]6O)(OC5=O)C4(C)O)C(O)CC23C)C1(C)C (stereo partly specified)	NO
O=C(c1c(F)ccc(NS(=O)(=O)N2CC[C@@H](F)C2)c1F)c1c[nH]c2ncc(-c3cnc(C4CC4)nc3)cc12	NO

Now take the following compound into account.
Record request — test call for CC(=O)C1=CCC2C3CC=C4CC(O)CC(O)C4(C)C3C(O)CC12C (stereo unspecified)
NO

---

Form field: max response (one value per entry).
# Test system: NIH3T3
# assay notes: Cytotoxic Profiling of Annotated Libraries Using Quantitative High-Throughput Screening (AID 1296008); also: % is scaled to controls: 0 for no effect and ±100 for the full control effect; nearly all actives have a fitted effect of over 60% in size
# reported conditions: Five cell lines viability, CellTiter-Glo ATP luminescence, 48-72 h; active compounds read low
# Protocol: Cell-based phenotypic screening is a commonly used approach to discover biological pathways, novel drug targets, chemical probes and high-quality hit-to-lead molecules. […] A pintool (Kalypsys) was used to transfer 23 nL of compound solution to the 1536-well assay plates. […] Plates were left at room temperature for 10 min before imaging the ATP-coupled luminescence using a ViewLux microplate imager (PerkinElmer, Waltham, MA).
Records with an inconclusive call do not appear. Active and inactive are the calls of the source. Calls follow the shape of the dose curve; as a rule, active = well fitted inhibition curve with a large enough effect; inconclusive = small, poorly fitted or top-dose-only effect; inactive = flat fitted curve, though single readings scatter.

Cc1c(C2=CCN(C(=O)N(C)C(C)C)CC2)nnn1-c1cccnc1F has a reported max response of -3.1% (inactive)

Recorded max response (molecule CNc1cc2[nH]c(=O)n(-c3ccc(NC(=O)NS(=O)(=O)c4ccc(Cl)s4)cc3)c(=O)c2cc1F ): 2.24% (inactive)

---

# assayed target: Peroxisome proliferator-activated receptor gamma (Homo sapiens)
# assay notes: qHTS assay for small molecule agonists of peroxisome proliferator-activated receptor gamma signaling (AID 588536);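 also: 0% = DMSO basal wells and 100% = rosiglitazone at 2 µM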
# reported conditions: HEK293 PPARg-UAS-bla, beta-lactamase ratio, 16 h, percent of rosiglitazone response, DMSO as zero; series mostly up to 76.7 µM
Results filed as inconclusive are left out. Activity calls are given as the source filed them. The call rests on the fitted dose curve; in most records, active means well fitted curve in the direction sought with a large enough effect in the signal ratio, with a control signal flat (not every such curve was filed as active); inconclusive means small, poorly fitted or top-dose-only effect, or effect the other way, or a change in a side signal; inactive means no such curve, though single readings can be large or run the other way; the % refers to the signal ratio.
measured property: outcome

> print(dat)
          structure.as.smiles  assay.result
1                    COC(C)=O      inactive
2                 C=Cc1ccccc1      inactive
3  O=C(O)CC(O)(CC(=O)O)C(=O)O      inactive
4              CN(C)Cc1ccccc1      inactive
